- Test system: MS2 coat protein
- Method Notes: apparent KD of MS2 coat protein; designed switch direction (-1 OFF switch, 1 ON switch): -1; higher = weaker reporter binding
- Particulars: input ligand: FMN 200 uM
Rule: apparent KD of MS2 coat protein of 0.06 µM or more gives y; anything lower gives n.

Sequence Input: AGUUUACAUGAGGAUCACCCAUGUGAGGAUAUGGAUUCGCUGGCCGUAGCCAGUGGAUCCAGAAGGCGCGUGAU [JL-ex1-4.29] (Eterna round: R97, puzzle: Exclusion 1)
Class Name: y
//
Sequence Input: ACAUGAGGAUCACCCAUGUCCGGCUGGUCCGUCUCGGCUGUCGAGGAUAUAGCUCGGUGUCCGCGCUAGAAGGUGGGAGCCGGC [Aenatbe mod 72] (Eterna round: R96, puzzle: Exclusion NG 3)
Class Name: y
//
Sequence Input: GUACUGAAGCUUUGCUUUAGUCGUACAUGAGGAUCACCCAUGUAGGAUAUGGUAGGCUUUGCUUACCAGAAGGACAGAGUGAUC [JL EXNG3 1.25] (Eterna round: R96, puzzle: Exclusion NG 3)
Class Name: y
//
Sequence Input: AUGCCACAUGAGGAUCACCCAUGUGAGGAUAUGGCCUGUUUGGCGUGUGCUGGCUCUGUCAGAAGGCGCGUGGG [salish99_ex1_r4_036] (Eterna round: R97, puzzle: Exclusion 1)
Class Name: n
//
Sequence Input: UAGUUACAUGAGGAUCACCCAUGUGAGGAUAUGAGUCAGUCACGGUGACGUGGCUGACUCAGAAGGCACAAAGG [Mat - Exclusion 1 - JL Mod - D38] (Eterna round: R97, puzzle: Exclusion 1)
Class Name: y
//
Sequence Input: GGGUGACAUGAGGAUCACCCAUGUCAGGAUAUUGAUCGUGAUCGGAAAUGAUCGUGAUCGAGAAGGGACUGCCC [-27.4, -26.4 kcal, A 27% sequence 2] (Eterna round: R97, puzzle: Exclusion 1)
Class Name: y
//
Sequence Input: ACUUGUAGAGGAUAUACGAGGGCCCAAGCGGCGAGAGCCGCACAUGAGGAUCACCCAUGUAGAAGGCUACUAUU [JL-ex2-4.25 ViennaUCT mod] (Eterna round: R97, puzzle: Exclusion 2)
Class Name: y
//
Sequence Input: UUUAAGGGAAUUAAGAUCACAUGAGGAUCACCCAUGUAUAUAUAGGAUAUCAGCUCGUGUAGAGCUGAGAAGGAUAUAUACAUA [ExNG3/6-A3] (Eterna round: R96, puzzle: Exclusion NG 3)
Class Name: y
//
Sequence Input: ACAUGAGGAUCACCCAUGUCUGGCUGGUCCGUCUCGGCUGUCGAGGAUAUAGCUCGGUGUCCGCGCUAGAAGGCGGGAGCUGGC [Aenatbe mod 81] (Eterna round: R96, puzzle: Exclusion NG 3)
Class Name: y
//
Sequence Input: UAAAAUUCGCGAGGAUAUGCGACCUAAUGGGAGGAUUGUCACAUGAGGAUCACCCAUGUCAGUCAGCAGAAGGCGCACCUGGUU [Anedmaon] (Eterna round: R96, puzzle: Exclusion NG 2)
Class Name: y
//
Sequence Input: AAUUCUAGGGUCAGACGCACAAGCUUUUUGCUCGUUUUAACAUGAGGAUCACCCAUGUCUAGUGGAUCUGAUCGGGC [JL ViennaUCT Isreen mod 8] (Eterna round: R96, puzzle: Sensor v3, turn-off variant 2)
Class Name: n
//
Sequence Input: GUCGUGCGGCUUUGCUGUGCGGGUGCAUGAGGAUCACCCAUGUAGGAUAUGGUACGCUUUGCGUGCCAGAAGGGCGUGCGUUGG [salish99_ExNG3_r04_009] (Eterna round: R96, puzzle: Exclusion NG 3)
Class Name: y
//
Sequence Input: ACAUGUUGUGCAGGAUAUGGGACACAUGAGGAUCACCCAUGUGGCUACAUGUCAUACCAAGCGUCUCAGAAGGGUAUUAACAUG [Ex NG2 #37] (Eterna round: R96, puzzle: Exclusion NG 2)
Class Name: n
//
Sequence Input: UGUAACCUAGGAUAUACAUGAGGAUCACCCAUGUAAUGUAGUAUAGUGUGUGUAAGGUGUAGAAGGAGGGAUGU [LRO-Excl05-22-Smart Aleck] (Eterna round: R97, puzzle: Exclusion 3)
Class Name: n
//
Sequence Input: GCAGCAUAGAUAACAGUCUGAUACAUGAGGAUCACCCAUGUGCAGGAUAUGGUCUGGAUUACAGGCCAGAAGGGUACAAGCUGC [Eli exng3 - 015] (Eterna round: R96, puzzle: Exclusion NG 3)
Class Name: n

###

- Tested on: MS2 coat protein
- Method Notes: apparent KD of MS2 coat protein, switch ON state; designed switch direction (-1 OFF switch, 1 ON switch): -1; higher = weaker reporter binding
- Particulars: FMN input: 0 or 200 uM; Eterna round: R93 (includes R88 designs)
Rule: apparent KD of MS2 coat protein of 30 nM or more gives yes (1); anything lower gives no (0).

Sequence Input: AAAUGCUGAGGAUAUACAUGAGGAUCACCCAUGUAAAAUAAAUAAAGGGUGUAAACGUGUAGAAGGCAGCAUAA [Exclusion 3.14e (FMN+ favored )]
Target Or System: MS2 coat protein
Class Name: yes (1)

Sequence Input: CUCUUGUCAGGAUAUCAAAGAAAAGAAGAGAAAGAAAAGAAUGAGAAGGGACAUGAGGAUCACCCAUGUAAGAA [EteRNA is fun!]
Target Or System: MS2 coat protein
Class Name: yes (1)

Sequence Input: AGCUAGUCAGGAUAUACGCAAACGAACGAAGCAGUGAAGGGACAUGAGGAUCACCCAUGUAGAAGGGACUAGCA [Diamond 30]
Target Or System: MS2 coat protein
Class Name: no (0)

Sequence Input: AAGAAGGUAGGAUAUACUAGGGCAACUAAUGCAAAGAUAAAACAUGAGGAUCACCCAUGUAGAAGGGCCAGAAA [JR_Exc002_Sub401]
Target Or System: MS2 coat protein
Class Name: yes (1)

Sequence Input: AGUCAUACAGGAUAUACAUGAGGAUCACCCAUGUUUAUCCUAAAAGGGUGAUCCUCAUGUAGAAGGGUAUGACA [EX3 209: Super Stable 9]
Target Or System: MS2 coat protein
Class Name: no (0)

Sequence Input: AGAACGUCAGGAUAUGCAACAACAAGUAAAUAGAGAAGAAGGCAGAAGGGACAUGAGGAUCACCCAUGUAAGAA [e4]
Target Or System: MS2 coat protein
Class Name: yes (1)

Sequence Input: AAAAAACAUGAGGAUCACCCAUGUGAGGAUAUCGAUAUUAAAGACACCCACUUAAUGGCGAGAAGGCGCAAAAA [Brourd 613 Mod 20 - Jieux - Exclusion 1]
Target Or System: MS2 coat protein
Class Name: no (0)

Sequence Input: GAAAAAGGAGGAUAUACGAACAUGUCAAAAGACGUGAAGGGACAUGAGGAUCACCCAUGUAGAAGGCUUAAAAG [Mat - Exclusion 2 - JL mod - D94]
Target Or System: MS2 coat protein
Class Name: yes (1)

Sequence Input: AACAUACAUGAGGAUCACCCAUGUCAGGAUAUGCCGGGUUAGAAAAAAAAAAAAAAACGUAGAAGGGACAAAAA [Bilbo Confounded 3 - Jieux - Exclusion 1]
Target Or System: MS2 coat protein
Class Name: yes (1)

Sequence Input: ACAAAACAUGAGGAUCACCCAUGUGAGGAUAUGCGAAACAAACAAACAAACAAACAAAGCAGAAGGCACAACAA [Ex 1 Tesla 3]
Target Or System: MS2 coat protein
Class Name: no (0)

Sequence Input: GCUUGUCAAGGAUAUACAUGAGGAUCACCCAUGUGAGAGAAAAAAGUGAGAAAGAAAAGUAGAAGGUGGUGAGG [salish99-ex3-78]
Target Or System: MS2 coat protein
Class Name: yes (1)

Sequence Input: AAAAAACAUGAGGAUCACCCAUGUGAGGAUAUCUGUAUUCAAUCCUCGGAUUGAAUACAGAGAAGGCACAUGGG [Ex1: 609]
Target Or System: MS2 coat protein
Class Name: no (0)

###

apparent KD of MS2 coat protein values, listed per item
- System: MS2 coat protein
- Method Notes: apparent KD of MS2 coat protein; designed switch direction (-1 OFF switch, 1 ON switch): -1; higher = weaker reporter binding
- Particulars: Eterna round: R95; input ligand: microRNA oligo, concentration not stated
Readout: apparent KD of MS2 coat protein (nM)

Sequence Input: ACAGUGCGAGGAUAUACAUGAGGAUCACCCAUGUGAGAGAAAUAAGUGAGGAAGAAAAGUAGAAGGCGCGUUGA [Mat - Exclusion 3 - Mod of Salish D70] (puzzle: Exclusion 3)
Readout: apparent KD of MS2 coat protein
Unit Abbreviation: nM
Quantitative Readout: 45.8
--
Sequence Input: UAAAUGUGAGGAUAUCAGGUGUGCUAGCAUACUGGUACAUCUGAGAAGGCACAUGAGGAUCACCCAUGUUCCUU [Mat - Exclusion 4 - Mod of JL - D52] (puzzle: Exclusion 4)
Readout: apparent KD of MS2 coat protein
Unit Abbreviation: nM
Quantitative Readout: 16.7
--
Sequence Input: CCUCUGUAAGGAUAUACGGAGACGGCUGGAAUCAGUGGAAAGUAGAAGGUACAUGAGGAUCACCCAUGUGAGAC [Anceleso] (puzzle: Exclusion 4)
Readout: apparent KD of MS2 coat protein
Unit Abbreviation: nM
Quantitative Readout: 20.2
--
Sequence Input: AUUUAGAGAGGAUAUAUAAAGUGAAACAUGAGGAUCACCCAUGUAAUUUUAUGGAUGUAAAUAGAAGGCUCAUUUA [Mat - Exclusion 5 - JL mod - D1] (puzzle: Exclusion 5)
Readout: apparent KD of MS2 coat protein
Unit Abbreviation: nM
Quantitative Readout: 28.9
--
Sequence Input: AUAAUAAAGGAGGAUAUCGUAUCGGAAACGAUACGAGAAGGUCUAACAUGAGGAUCACCCAUGUUCCUCAAAUA [Mat - Exclusion 6 - Eli Mod - D49] (puzzle: Exclusion 6)
Readout: apparent KD of MS2 coat protein
Unit Abbreviation: nM
Quantitative Readout: 40.9
